ASSAY TARGET: S441A TMPRSS2 ectodomain, soluble (human, UniProt O15393, S441A)
Sequence (O15393 106-492 S441A): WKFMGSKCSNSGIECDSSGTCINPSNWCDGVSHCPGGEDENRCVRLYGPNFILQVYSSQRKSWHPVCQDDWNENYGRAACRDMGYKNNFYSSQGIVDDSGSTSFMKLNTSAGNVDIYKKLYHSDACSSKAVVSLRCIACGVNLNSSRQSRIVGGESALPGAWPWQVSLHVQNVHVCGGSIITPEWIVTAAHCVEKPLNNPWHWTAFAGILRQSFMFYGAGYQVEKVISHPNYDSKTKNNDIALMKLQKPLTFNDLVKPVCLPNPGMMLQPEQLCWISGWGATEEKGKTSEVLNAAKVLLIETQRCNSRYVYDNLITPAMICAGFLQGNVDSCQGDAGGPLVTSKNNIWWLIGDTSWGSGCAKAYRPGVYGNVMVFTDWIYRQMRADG
EXPERIMENT: BLI
ENDPOINT LABEL: log10 Kd (log10 of the value in nM)
Would you kindly interpret these values as log10 of Kd expressed in nM?

Input line: Reported log10 Kd, binder anti-TMPRSS2 nanobody VHH-C11 (VHH) VHH: QVQLVESGGGLVQPGGSLRLSCAASGFTLDYYDIYWFRQAPGKEREGVSSITTSGGRTNYADSVKGRFTISRDNAKNTVYLQMNSLKPEDTAVYYCAAKVGGRRNWIAPLNGYENALWGKGTLVTVSS : ____
Output line: 1.51

Input line: Query anti-TMPRSS2 nanobody VHH-D01 (VHH) VHH: EVQLVESGGGLVQPGGPLRLSCASSGSTLEHYDIGWFRQVPGGLREGVSSITASGGRTNYADSVKGRFTISRDNGKNAVYLQMNSLKPEDTAVYYCAGKIGGRRNWVAPLDGFENAYWGQGTQVTVSS next
Output line: 0.78

Input line: Query anti-TMPRSS2 nanobody VHH-A01 (VHH) VHH: QVQLVESGGGLVQPGGSLRLSCVVSGFSLDYYAIGWFRQAPGKEREGVSCIGSSGDKTNYADSVKGRFTISRDNAKNTVYLQMNSLKPEDTAVYYCAAESALYSDCTEEQNPMLYDYWGQGTQVTVSS next
Output line: -0.11

Input line: Query anti-TMPRSS2 nanobody VHH-F05 (VHH) VHH: EVQLVESGGGLVQPGGSLRLSCAASGFTLDYYAIGWFRQAPGKEREGVSCISSSGDSIKYVDSVKGRFTISRDNAKNTVYLQMNSLKPEDTAVYQCAADALGSGCLTGNYDYWGQGTRVTVSS next
Output line: 0.41

Input line: Query anti-TMPRSS2 nanobody VHH-A07 (VHH) VHH: QVQLVESGGGLVQPGGSLRLSCTSSGSPLEHYDIIWFRQAPGREREGVSSITTSGGHTNYADSVKDRFTISRDNAKNVVYLQMNSLKPEDTAVYYCAGRVGGRRNWIVPLDGYDNAYWGQGTQVTVSS next
Output line: 1.12
